tested system: Mutant CD33-GFP JS24 (Q24E) on 293FT cells (UniProt P20138)
Sequence (P20138 18-364 Q24E): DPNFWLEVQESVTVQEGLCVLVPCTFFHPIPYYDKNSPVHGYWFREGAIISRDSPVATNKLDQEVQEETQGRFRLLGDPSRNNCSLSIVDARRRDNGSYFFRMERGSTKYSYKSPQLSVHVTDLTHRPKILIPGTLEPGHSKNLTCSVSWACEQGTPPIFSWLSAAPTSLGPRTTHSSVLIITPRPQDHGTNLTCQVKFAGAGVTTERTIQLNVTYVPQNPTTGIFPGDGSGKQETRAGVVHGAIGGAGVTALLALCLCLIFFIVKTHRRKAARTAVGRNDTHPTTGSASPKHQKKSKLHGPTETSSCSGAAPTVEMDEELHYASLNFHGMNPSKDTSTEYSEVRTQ
assay notes: FACS, mutant CD33-GFP on 293FT cells
recorded endpoint: FACS binding data
I only need the number, thanks.

**Query** I have this binder here, sdCD33_7 (VHH, sdAb from a naive llama phage library; also called 420; sdAb420) VHH: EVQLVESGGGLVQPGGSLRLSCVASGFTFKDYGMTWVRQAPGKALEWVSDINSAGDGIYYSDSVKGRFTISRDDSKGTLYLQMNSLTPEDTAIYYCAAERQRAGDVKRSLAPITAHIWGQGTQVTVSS , and I need its recorded FACS binding data.
**Result** 99.1

**Query** Moving on to the next binder: sdCD33_2 (VHH) VHH: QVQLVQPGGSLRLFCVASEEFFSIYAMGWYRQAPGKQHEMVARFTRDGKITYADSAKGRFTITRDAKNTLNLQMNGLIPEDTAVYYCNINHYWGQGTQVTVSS
**Result** 98.8

Source listed as patent US20230365675A1.
